test: Solubility in biorelevant fasted state simulated intestinal fluid (FaSSIF); assay type: physicochemical; details: 25 °C, fassif, kinetic from dmso stock, Solubility
measured parameter: solubility (µM)
Value expressed in µM; do not type the unit.

line notation | measure unit | solubility
CC[N+](CC)(CC)COC(=O)[C@H]1CC[C@H]([C@@](C)(O)c2ccc(-c3cc(C)cc(Nc4cc(C(F)F)ccn4)n3)cn2)CC1 | µM | 138

Form field: reported solubility of CCN(CC)C(=O)N1CC[N+](C)(COC(=O)[C@H]2CC[C@H]([C@@](C)(O)c3ccc(-c4cc(C)cc(Nc5cc(C(F)F)ccn5)n4)cn3)CC2)CC1
55

// lookup solubility for Cc1cc(Nc2cc(C(F)F)ccn2)nc(-c2ccc([C@](C)(O)[C@H]3CC[C@H](C(=O)OC[N+](C)(C)CCOC(=O)c4ccccc4)CC3)nc2)c1
155

// lookup solubility for Cc1cc(Nc2cc(C(F)F)ccn2)nc(-c2ccc([C@](C)(O)[C@H]3CC[C@H](C(=O)OCOC(=O)OCCOCCOCCOCCOP(=O)(O)O)CC3)nc2)c1
154

Consider the molecule Cc1cc(Nc2cc(C(F)F)ccn2)nc(-c2ccc([C@](C)(O)[C@H]3CC[C@H](C(=O)OCOC(=O)O[C@H]4CC[C@H](N)CC4)CC3)nc2)c1 and give its measured solubility.
149
